Target: OsWRKY34 (Oryza sativa, UniProt Q0JBA9 1-250)
Sequence (Q0JBA9 entry or part of it): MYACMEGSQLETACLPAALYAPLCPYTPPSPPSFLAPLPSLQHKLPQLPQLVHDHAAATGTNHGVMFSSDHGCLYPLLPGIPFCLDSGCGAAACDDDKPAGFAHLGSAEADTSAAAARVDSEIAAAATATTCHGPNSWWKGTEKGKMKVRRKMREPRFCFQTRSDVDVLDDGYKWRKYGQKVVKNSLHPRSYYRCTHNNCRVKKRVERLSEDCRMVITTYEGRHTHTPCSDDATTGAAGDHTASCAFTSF
Assay: protein-binding microarray (RPBM); PBS, 2% BSA, 51.3 ng/ul salmon testes DNA, 50 uM zinc acetate, 200 nM TF, 25 C, 1 h; high values mean tight binding
Settings: protein: recombinant; tags: N-terminal polyhistidine and DsRed monomer fusion (pET32a); label: CyDye5-dUTP incorporated in the synthesized complementary strand; 3' TTTTT single-stranded linker to array surface; dsDNA, one strand shown
The full ranking holds about 68,000 sequences; the median of “fluorescence intensity (a.u.)” is about 9,100, and the highest 2% start at about 16,000. This excerpt belongs to a sample that is enriched for the highest values.
MEASUREMENT_KIND: binding signal

>  <MACROMOLECULE_SEQUENCE>
TTGCTCGTATTTTCTCCCCAAAGTCATCAACTTTGATGCTCGGAGTCACCTAGTGCAG

>  <MEASUREMENT_KIND>
binding signal

>  <TEST_RESULT>
19000 fluorescence intensity (a.u.)

$$$$
>  <MACROMOLECULE_SEQUENCE>
TATAGATAGATACTACCAGGGTTTCCAAACTGTTTTTTTGCGGAGTCACCTAGTGCAG

>  <MEASUREMENT_KIND>
binding signal

>  <TEST_RESULT>
23300 fluorescence intensity (a.u.)

$$$$
>  <MACROMOLECULE_SEQUENCE>
AGTACTACTACTACTACATACAGCTGCCTTTGCTTAGCTCCGGAGTCACCTAGTGCAG

>  <MEASUREMENT_KIND>
binding signal

>  <TEST_RESULT>
9580 fluorescence intensity (a.u.)

$$$$
>  <MACROMOLECULE_SEQUENCE>
TGGAAGTCTGGAAGGCGCTGTACCTTCGTCTCGCCCGTCACGGAGTCACCTAGTGCAG

>  <MEASUREMENT_KIND>
binding signal

>  <TEST_RESULT>
8650 fluorescence intensity (a.u.)

$$$$
>  <MACROMOLECULE_SEQUENCE>
TAGCTCGGATTCTGCCCCTAATCCCGCCGTCCGCCTCCGCCGGAGTCACCTAGTGCAG

>  <MEASUREMENT_KIND>
binding signal

>  <TEST_RESULT>
8490 fluorescence intensity (a.u.)

$$$$
>  <MACROMOLECULE_SEQUENCE>
GTCCCATCACCTTATTTCTCATTTTGATTTACTTTTATCTCGGAGTCACCTAGTGCAG

>  <MEASUREMENT_KIND>
binding signal

>  <TEST_RESULT>
9330 fluorescence intensity (a.u.)

$$$$
>  <MACROMOLECULE_SEQUENCE>
CCTGTCATGGAGGATGTTTCCTGAAGTTTCAGAGCTGTATCGGAGTCACCTAGTGCAG

>  <MEASUREMENT_KIND>
binding signal

>  <TEST_RESULT>
8310 fluorescence intensity (a.u.)

$$$$
>  <MACROMOLECULE_SEQUENCE>
CGTACGCGCCCACGCCCACTCCCACGCCTTCGCGCGCGCGCGGAGTCACCTAGTGCAG

>  <MEASUREMENT_KIND>
binding signal

>  <TEST_RESULT>
9220 fluorescence intensity (a.u.)

$$$$
>  <MACROMOLECULE_SEQUENCE>
CTTTTCCTGCTTGGTTCGTTACTCCTGTTTAATTATTATTCGGAGTCACCTAGTGCAG

>  <MEASUREMENT_KIND>
binding signal

>  <TEST_RESULT>
14600 fluorescence intensity (a.u.)

$$$$

Attribution: paper PMC7819943
